The origin of these recorded values is patent US20210330611A1.

# Test system: primary rat microglia
# Experiment description: Cell toxicity (dead cells, size <150 μm2) in LPS assay
# Study conditions: primary HTS, 10 μM, LPS assay, dead cells size <150 μm2
Where a name gives a salt, the structure may show the parent alone.
Property measured: LPS % cell toxicity

* CN(C)CCCC1(c2ccc(F)cc2)OCc2cc(C#N)ccc21 (stereo not drawn) | 0%
* CN(C)[C@@H]1C(O)=C(C(N)=O)C(=O)[C@@]2(O)C(O)=C3C(=O)c4c(O)ccc(Cl)c4[C@@](C)(O)[C@H]3C[C@@H]12 | 0%
* CCC(=O)O[C@]1(C(=O)CCl)[C@@H](C)C[C@H]2[C@@H]3CCC4=CC(=O)C=C[C@]4(C)[C@@]3(F)[C@@H](O)C[C@@]21C [Clobetasol propionate, reference compound] | 2%
* CC(C)(O)C(Cl)(Cl)Cl | 0%
* CC(C)(O/N=C(\C(=O)N[C@@H]1C(=O)N2C(C(=O)[O-])=C(C[n+]3ccccc3)CS[C@H]12)c1csc(N)n1)C(=O)O | 1%
* CC(=O)OCC(=O)[C@@]1(O)CC[C@H]2[C@@H]3CCC4=CC(=O)CC[C@]4(C)[C@H]3C(=O)C[C@@]21C [Cortisone Acetate] | 0%
* Cc1cc(C(C#N)c2ccc(Cl)cc2)c(Cl)cc1NC(=O)c1cc(I)cc(I)c1O (stereo not drawn) | 0%
* Cc1onc(-c2ccccc2Cl)c1C(=O)N[C@@H]1C(=O)N2[C@@H]1SC(C)(C)[C@@H]2C(=O)O | 1%
* CO/N=C(\C(=O)N[C@@H]1C(=O)N2C(C(=O)O)=C(CSC(=O)c3ccco3)CS[C@H]12)c1csc(N)n1 [Ceftiofur Hydrochloride] | 0%
* C=C[C@H]1CN2CC[C@H]1C[C@H]2[C@H](O)c1ccnc2ccccc12 | 0%
* CCCCOC(=O)c1ccc(O)cc1 | 0%
* CC(C)/N=c1\cc2n(-c3ccc(Cl)cc3)c3ccccc3nc-2cc1Nc1ccc(Cl)cc1 | 0%

---

# Tested on: primary rat microglia
# Experiment description: Cell toxicity (dead cells, size <150 μm2) in LPS assay
# Study conditions: primary microglia HTS, LPS stimulation; decreased size (<150 μm^2) as marker of toxicity
In this section we review reported LPS % cell toxicity values for a set of compounds.
Property measured: LPS % cell toxicity (%)

• CC[N+](C)(CC)CCOC(=O)C(O)(c1ccccc1)C1CCCCC1 (stereo not shown) = 1
• C[C@@H]1C/C=C/C=C/C=C/C=C/[C@H](O[C@@H]2O[C@H](C)[C@@H](O)[C@H](N)[C@@H]2O)C[C@@H]2O[C@](O)(C[C@@H](O)C[C@H]3O[C@@H]3/C=C/C(=O)O1)C[C@H](O)[C@H]2C(=O)O = 0
• C[N+](C)(C)CCCCCC[N+](C)(C)C = 2
• O=[N+]([O-])OCC(CO[N+](=O)[O-])O[N+](=O)[O-] = 1

---

# System: LPS-induced microglia activation
# Experiment description: Image-based assay of LPS-induced microglia activation (HTS and dose response)
# Type: cell-based, rat
# Study conditions: primary microglia HTS, LPS stimulation, compounds at 10 μM
Where a name gives a salt, the structure may show the parent alone.
Property measured: LPS % inhibition (%)

- CCOP(=S)(OCC)Oc1ccc2c(C)c(Cl)c(=O)oc2c1 [Coumophos]: 16
- FC(F)(Cl)C(F)(F)Cl [Cryoflurane]: 12
- CC[C@@]1(O)C(=O)OCc2c1cc1n(c2=O)Cc2cc3c(CN(C)C)c(O)ccc3nc2-1 [Topotecan, Topotecan Hydrochloride]: 112
- CC(=O)NCCCS(=O)(=O)[O-].CC(=O)NCCCS(=O)(=O)[O-].[Ca+2] [Acamprosate Calcium]: 22
